- Target desc: human IL-23R (Homo sapiens)
- Sequence (Q5VWK5 24-353 limits assumed): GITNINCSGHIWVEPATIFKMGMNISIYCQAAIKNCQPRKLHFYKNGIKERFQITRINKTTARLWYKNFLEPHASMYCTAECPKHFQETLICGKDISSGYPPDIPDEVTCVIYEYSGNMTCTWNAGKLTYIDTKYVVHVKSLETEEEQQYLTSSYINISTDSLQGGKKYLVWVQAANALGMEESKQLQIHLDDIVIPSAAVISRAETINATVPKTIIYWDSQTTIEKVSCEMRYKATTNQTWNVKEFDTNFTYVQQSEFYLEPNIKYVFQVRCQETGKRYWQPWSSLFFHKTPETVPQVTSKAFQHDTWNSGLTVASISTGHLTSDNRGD
Numbered stars: 1 amine (or outer) side, 2 acyl side, 3 side chain; on linkers, the order of the positions; unused ones are H or OH. Bridge positions count the residues as written; N and C are the ends. Square brackets hold non-standard residues; d marks the D form. Peptide text beside a SMILES is read from it. * marks the point of attachment. Trp(7-Me) = Cc1cccc2c(C[C@H](N)C(=O)O)c[nH]c12; 2Nal = N[C@@H](Cc1ccc2ccccc2c1)C(=O)O; X1 = O=C(CCCCCCCCCCCCCN[*:1])[*:2]; 3Pal = N[C@@H](Cc1cccnc1)C(=O)O; Thp = NC1(C(=O)O)CCOCC1; Me2NCH2CH2 = CN(C)CC*; Aib = CC(C)(N)C(=O)O; Aoc = NCCCCCCCC(=O)O; Sar = CNCC(=O)O
Below, each entry is listed with its recorded pIC50.
Friendly reminder that pIC50 comes from taking -log10 of the concentration in mol/L.

molecule="Cc1cccc2c(C[C@@H]3NC(=O)CCCCCCCCCCCCCNC(=O)CC[C@@H](C(=O)N[C@@H](CC(N)=O)C(=O)N[C@@H](Cc4cccnc4)C(=O)N(C)CC(N)=O)NC(=O)C(C)(C)NC(=O)[C@H](Cc4ccc5ccccc5c4)NC(=O)[C@H](Cc4ccc(OCCN(C)C)cc4)NC(=O)C4(CCOCC4)NC(=O)[C@H](CCC(N)=O)NC3=O)c[nH]c12 [compound 1] ([X1][Trp(7-Me)]Q[Thp]Y(Me2NCH2CH2)[2Nal][Aib]EN[3Pal][Sar]-NH2; lactam N-8)" observed=9.52

Next up:
Entry Cc1cccc2c(C[C@@H]3NC(=O)CCCCCCCNC(=O)CC[C@@H](C(=O)N[C@@H](CC(N)=O)C(=O)N[C@@H](Cc4cccnc4)C(=O)N(C)CC(N)=O)NC(=O)C(C)(C)NC(=O)[C@H](Cc4ccc5ccccc5c4)NC(=O)[C@H](Cc4ccc(OCCN(C)C)cc4)NC(=O)C4(CCOCC4)NC(=O)[C@H](CC(C)C)NC3=O)c[nH]c12 [compound 9] ([Aoc][Trp(7-Me)]L[Thp]Y(Me2NCH2CH2)[2Nal][Aib]EN[3Pal][Sar]-NH2; lactam N-8) , pIC50 reported as 9.03

###

- Measurement protocol: Solubility of peptide compounds in buffer formulations (Table 5)
- Assay type: physicochemical
- Assay context: aqueous buffer; 50 mM phosphate buffer pH 6.5, 2 h agitation, target 1 mg/ml; read-out: Solubility, Buffer pH 6.5
Numbered stars: 1 amine (or outer) side, 2 acyl side, 3 side chain; on linkers, the order of the positions; unused ones are H or OH. Bridge positions count the residues as written; N and C are the ends. Square brackets hold non-standard residues; d marks the D form. Peptide text beside a SMILES is read from it. * marks the point of attachment. Lys(Me,(CH2)4NMe(CH2)5CO) = CN(CCCCCC(=O)[*:3])CCCCN(C)CCCC[C@H](N[*:1])C(=O)[*:2]; Lys(Me,(CH2)4NMe(CH2)4CO) = CN(CCCCC(=O)[*:3])CCCCN(C)CCCC[C@H](N[*:1])C(=O)[*:2]; Trp(7-Me) = Cc1cccc2c(C[C@H](N)C(=O)O)c[nH]c12; Sebacoyl = O=C(CCCCCCCCC(=O)[*:2])[*:1]; 2Nal = N[C@@H](Cc1ccc2ccccc2c1)C(=O)O; 3Pal = N[C@@H](Cc1cccnc1)C(=O)O; Lys(Me) = CNCCCC[C@H](N)C(=O)O; Thp = NC1(C(=O)O)CCOCC1; Me2NCH2CH2 = CN(C)CC*; Aib = CC(C)(N)C(=O)O; Sar = CNCC(=O)O
Below, each entry is listed with its recorded solubility at 2 h.

Some compounds with recorded solubility at 2 h:
compound="CC(=O)NCCCC[C@@H]1NC(=O)[C@H](Cc2c[nH]c3c(C)cccc23)NC(=O)CCCCCN(C)CCCCN(C)CCCC[C@@H](C(=O)NCC(=O)N[C@@H](Cc2cccnc2)C(=O)N(C)CC(N)=O)NC(=O)C(C)(C)NC(=O)[C@H](Cc2ccc3ccccc3c2)NC(=O)[C@H](Cc2ccc(OCCN(C)C)cc2)NC(=O)C2(CCOCC2)NC1=O [compound 27] ([Trp(7-Me)]K(Ac)[Thp]Y(Me2NCH2CH2)[2Nal][Aib][Lys(Me,(CH2)4NMe(CH2)5CO)]G[3Pal][Sar]-NH2; lactam N-7)" observed="≥ 920 µg/mL"
compound="Cc1cccc2c(C[C@@H]3NC(=O)CCCCCCCCC(=O)N(C)CCCC[C@@H](C(=O)N[C@@H](CC(N)=O)C(=O)N[C@@H](Cc4cccnc4)C(=O)N(C)CC(N)=O)NC(=O)C(C)(C)NC(=O)[C@H](Cc4ccc5ccccc5c4)NC(=O)[C@H](Cc4ccc(OCCN(C)C)cc4)NC(=O)C4(CCOCC4)NC(=O)[C@H](CCC(N)=O)NC3=O)c[nH]c12 [compound 19] ([Trp(7-Me)]Q[Thp]Y(Me2NCH2CH2)[2Nal][Aib][Lys(Me)]N[3Pal][Sar]-NH2; linker N-7 via Sebacoyl)" observed="120 µg/mL"

Next up:
Entry CC(=O)NCCCC[C@@H]1NC(=O)[C@H](Cc2c[nH]c3ccccc23)NC(=O)CCCCN(C)CCCCN(C)CCCC[C@@H](C(=O)N[C@@H](CO)C(=O)N[C@@H](Cc2cccnc2)C(=O)N(C)CC(N)=O)NC(=O)C(C)(C)NC(=O)[C@H](Cc2ccc3ccccc3c2)NC(=O)[C@H](Cc2ccc(OCCN(C)C)cc2)NC(=O)C2(CCOCC2)NC1=O [compound 42] (WK(Ac)[Thp]Y(Me2NCH2CH2)[2Nal][Aib][Lys(Me,(CH2)4NMe(CH2)4CO)]S[3Pal][Sar]-NH2; lactam N-7) , solubility at 2 h reported as ≥ 1030 µg/mL
